Condition Label: in acetonitrile, 293.15 K
Reported Metric: solubility (mole fraction)
The reply should be a number, written without any unit.

Qu. // returns reported solubility (mole fraction) for input "O=C(O)CCCc1c[nH]c2ccccc12"
Ans. 0.0654

###

Condition Label: in ethyl lactate, 283.15 K
Reported Metric: solubility (mole fraction)
# output: bare number, no unit

Qu. // solubility (mole fraction) lookup, key: "O=C(O)CCCc1c[nH]c2ccccc12"
Ans. 0.101

###

Condition Label: in n-propanol, 313.15 K
Reported Metric: solubility (mole fraction)
Enter the number alone.

Qu. Need solubility (mole fraction) of "O=C(O)CCCc1c[nH]c2ccccc12" , thanks.
Ans. 0.0994

###

Condition Label: in 2-butanone, 313.15 K
Reported Metric: solubility (mole fraction)
Reply briefly: the number, and no unit.

Qu. # solubility (mole fraction) lookup, item "O=C(O)CCCc1c[nH]c2ccccc12"
Ans. 0.218

###

Condition Label: in sec-butanol, 313.15 K
Reported Metric: solubility (mole fraction)
Just the number, please.

Qu. Dear colleague, I am looking for the recorded solubility (mole fraction) of the following compound: "O=C(O)CCCc1c[nH]c2ccccc12"
Ans. 0.111

###

Condition Label: in isobutanol, 323.15 K
Reported Metric: solubility (mole fraction)
The answer should be a number; do not append a unit.

Qu. Which solubility (mole fraction) reading was recorded for the compound "O=C(O)CCCc1c[nH]c2ccccc12" ?
Ans. 0.102

###

Condition Label: in ethanol, 313.15 K
Reported Metric: solubility (mole fraction)
Just the number.

Qu. Reported solubility (mole fraction) for "O=C(O)CCCc1c[nH]c2ccccc12" : what is it?
Ans. 0.116

###

Condition Label: in sec-butanol, 293.15 K
Reported Metric: solubility (mole fraction)

Qu. Please look up its solubility (mole fraction): "O=C(O)CCCc1c[nH]c2ccccc12"
Ans. 0.0582

###

Condition Label: in 2-butanone, 288.15 K
Reported Metric: solubility (mole fraction)
Output: the number by itself.

Qu. // solubility (mole fraction) lookup, key: "O=C(O)CCCc1c[nH]c2ccccc12"
Ans. 0.139

###

Condition Label: in n-propanol, 303.15 K
Reported Metric: solubility (mole fraction)
Answer field: number only, no words.

Qu. Dear colleague, I am looking for the recorded solubility (mole fraction) of the following molecule: "O=C(O)CCCc1c[nH]c2ccccc12"
Ans. 0.0727

###

Condition Label: in methanol, 303.15 K
Reported Metric: solubility (mole fraction)
Form rule: numeric answer, no unit written next to it.

Qu. Could you share which solubility (mole fraction) value was measured for "O=C(O)CCCc1c[nH]c2ccccc12" ?
Ans. 0.0922

###

Condition Label: in methyl acetate, 323.15 K
Reported Metric: solubility (mole fraction)
Answer using only a numeral; do not append any unit.

Qu. Quick one: solubility (mole fraction) of "O=C(O)CCCc1c[nH]c2ccccc12" ?
Ans. 0.19

###

Condition Label: in isobutyl acetate, 298.15 K
Reported Metric: solubility (mole fraction)
Write the number on its own, no unit after it.

Qu. For the compound shown here, "O=C(O)CCCc1c[nH]c2ccccc12" , give the reported solubility (mole fraction).
Ans. 0.0572
